Data origin: paper PMC10033419

System: DENV-1 G4 45AZ5
Test: DENV-1/45AZ5 antiviral assay RT-qPCR
Assay type: cell-based
Settings: Dengue virus, DENV1, DENV-qPCR-VeroECACC-deltaCt-DENV-1/45AZ5_pre-seeding, single experiments (EXPERIMENT_ID); read-out: EC50 (µM) result_value, DENV-1/45AZ5
metric: EC50 (µM)

>>> df
                                   molecule  display_unit  assay_result
0  COc1cc(N[C@H](C(=O)c2c[nH]c3ccc(OC(F)(F)F)cc23)c2ccc(Cl)cc2OC)cc(S(C)(=O)=O)c1 [JNJ-1802]            µM        0.0015
